# methodNotes: Inhibitory activity against thromboxane B2 formation (TXA2 synthase) by incubating prostaglandin H2 (PGH-2) with horse platelet microsomes
readoutName: pIC50
Reminder that pIC50 is minus the log10 of a molar concentration.

Entry O=C(O)CCCC/C=C(/c1ccc(Br)cc1)c1cccnc1 , pIC50 reported as 7.09

Entry C/C(=C\CCCCC(=O)O)c1cccnc1 [(Z)-7-Pyridin-3-yl-oct-6-enoic acid] , pIC50 reported as 6.68

Entry O=C(O)CCCC/C=C(/c1cccnc1)c1cccs1 , pIC50 reported as 7.27

Entry CC(C)CSC(CCC/C=C(\c1ccccc1)c1cccnc1)C(=O)O (configuration not stated) , pIC50 reported as 6.96

Entry O=C(O)CCCC/C=C(/c1cccnc1)c1ccsc1 , pIC50 reported as 7.21

Entry O=C(O)C(CCC/C=C(\c1cccnc1)c1cccs1)c1ccccc1 (configuration not stated) , pIC50 reported as 7.49

Entry CC(C)(CCC/C=C(/c1ccccc1)c1cccnc1)C(=O)O , pIC50 reported as 7.52

Entry O=C(O)CCCC/C=C(\c1cccnc1)c1cccs1 , pIC50 reported as 7.70

Entry CCOC(=O)CCCC/C=C(\c1ccccc1)c1cccnc1 , pIC50 reported as 6.22

Entry O=C(O)CCCC/C=C(\c1cccnc1)c1ccsc1 , pIC50 reported as 7.51

Entry CSC(CCC/C=C(\c1ccccc1)c1cccnc1)C(=O)O (configuration not stated) , pIC50 reported as 7.52

Entry O=C(O)CCCC/C=C(/CCCc1ccccc1)c1cccnc1 , pIC50 reported as 7.19

Entry COCC(CCC/C=C(\c1ccccc1)c1cccnc1)C(=O)O (configuration not stated) , pIC50 reported as 7.39

Entry O=C(O)CCC/C=C(/c1ccccc1)c1cccnc1 , pIC50 reported as 6.55

Entry O=C(O)CCC/C=C(\c1ccccc1)c1cccnc1 , pIC50 reported as 7.52

Entry Cc1ccsc1/C(=C/CCCCC(=O)O)c1cccnc1 , pIC50 reported as 7.54

Entry O=C(O)CCCC/C=C(\c1cccnc1)c1cccc([N+](=O)[O-])c1 , pIC50 reported as 7.14

Entry O=C(O)CCCC/C=C(\c1cccnc1)c1cccc(F)c1 , pIC50 reported as 7.26

Entry C=CCC(CCC/C=C(\c1ccccc1)c1cccnc1)C(=O)O (configuration not stated) , pIC50 reported as 7.30

Entry COc1ccc(/C(=C/CCCCC(=O)O)c2cccnc2)cc1 , pIC50 reported as 7.10

Entry O=C(O)CCCC/C=C(\c1cccnc1)c1ccccc1Br , pIC50 reported as 6.89

Entry O=C(O)C(CCC/C=C(/c1cccnc1)c1cccs1)c1ccccc1 (configuration not stated) , pIC50 reported as 7.30

Entry NC(=O)CCCC/C=C(\c1ccccc1)c1cccnc1 , pIC50 reported as 6.40

Entry C/C(=C/CCCCC(=O)O)c1cccnc1 , pIC50 reported as 7.15

Entry CC(C)(O)C(CCC/C=C(\c1ccccc1)c1cccnc1)C(=O)O (configuration not stated) , pIC50 reported as 7.38

Entry O=C(O)CCCC/C=C\c1cccnc1 , pIC50 reported as 6.60

Entry CC(C)(CCC/C=C(\c1ccccc1)c1cccnc1)C(=O)O , pIC50 reported as 7.68

Entry CC(C)(CCCC/C=C(\c1ccccc1)c1cccnc1)C(=O)O , pIC50 reported as 7.35

Entry O=C(O)CCCCCC(c1ccccc1)c1cccnc1 (configuration not stated) , pIC50 reported as 5.57

Entry O=C(O)C(CCC/C=C(\c1ccccc1)c1cccnc1)Sc1ccccc1 (configuration not stated) , pIC50 reported as 7.48

Entry O=C(O)C(CCC/C=C(\c1ccccc1)c1cccnc1)C1(O)CCCC1 (configuration not stated) , pIC50 reported as 7.19

Entry C=C(C)C(CCC/C=C(\c1ccccc1)c1cccnc1)C(=O)O (configuration not stated) , pIC50 reported as 7.55

Entry O=C(O)CCCCCCCCC/C=C(/c1ccccc1)c1cccnc1 , pIC50 reported as 6.28

Entry Cc1ccc(/C(=C/CCCCC(=O)O)c2cccnc2)cc1 , pIC50 reported as 7.07

Entry O=C(O)CCCC/C=C(\c1cccnc1)c1cccc(Br)c1 , pIC50 reported as 6.74

Entry O=C(O)CCCC/C=C(/c1ccc(F)cc1)c1cccnc1 , pIC50 reported as 7.08

Entry O=C(O)CCCCCCCCC/C=C(\c1ccccc1)c1cccnc1 , pIC50 reported as 7.26

Entry O=C(O)C(CCC/C=C(\c1ccccc1)c1cccnc1)C1=CCCC1 (configuration not stated) , pIC50 reported as 7.22

Entry COC(=O)CCCC/C=C(\c1ccccc1)c1cccnc1 , pIC50 reported as 7.00

Entry CC(C)(CCCC/C=C(/c1ccccc1)c1cccnc1)C(=O)O , pIC50 reported as 7.42
